Taken from the OPERA property sets (Mansouri et al. 2018).

Reported melting point values for a set of molecules
Quick reminder: number only, in °C, skip the unit.

Take a look at these entries with their results.
{"molecule": "O=C1CN(N=Cc2ccc([N+](=O)[O-])o2)C(=O)N1", "recorded_value": 263}
{"molecule": "CCCCCF", "recorded_value": -120}

Any idea what melting point was measured for NC1CC1 ? -35.4

Any idea what melting point was measured for COc1ccccc1CC(=O)O ? 124

Any idea what melting point was measured for CCCCCCC1CCCC1 ? -73

Any idea what melting point was measured for O=C(O)c1ccsc1 ? 138

Any idea what melting point was measured for COc1cc2ccc(=O)oc2cc1O ? 204

Any idea what melting point was measured for CC(C)NCC(O)COc1cccc2c1C=CC2 (stereo unspecified) ? 88.5

Any idea what melting point was measured for CC(=O)CC(c1ccc([N+](=O)[O-])cc1)c1c(O)c2ccccc2oc1=O (stereo unspecified) ? 197

Any idea what melting point was measured for CSc1ccc(C(=O)O)cc1 ? 194

Any idea what melting point was measured for NCCCO ? 11
